t½ values by entry
Target: T1, muIgG2a huCLL1 (human, UniProt Q5QGZ9 65-265, limits assumed)
T1 construct: It may be the same construct as muIgG2a monoFc huCLL1 (+) of the ELISA; also called huCLL1.mIgG2a; not shown: mouse IgG2a part
T1 sequence: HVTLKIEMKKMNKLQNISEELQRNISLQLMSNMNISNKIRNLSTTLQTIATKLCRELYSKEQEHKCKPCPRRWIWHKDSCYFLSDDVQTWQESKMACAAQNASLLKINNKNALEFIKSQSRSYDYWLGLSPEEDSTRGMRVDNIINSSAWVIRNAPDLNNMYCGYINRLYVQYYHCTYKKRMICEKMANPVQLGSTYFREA
Assay: Octet BLI, mAb captured on FAB2G biosensor, antigen in solution
Respond with a number, then the unit of measure.

BINDER	t½
D2AD88607-7048 (antibody, V domains shown, also called mAb_042) VH: EVQLVESGGGLVQPGGSLRLSCAASGFTFSSYDMHWVRQATGKGLEWVSAIGTAGDKYYLASVKGRFTISRENAKNSLYLQMNSLRAGDTAVYYCVRDSLTGPTVTPYMDVWGKGTTVTVSS VL: EIVLTQSPDFQSVTPKEKVTITCRASQSIGSGLHWYQQKPDQSPKLLIIYASQSISGVPSRFSGSGSGTDFTLTINSLEAEDAAAYYCHQSSSLPYTFGQGTKLEIK	0.128 h

# t½ of D2D88607-14083 (antibody, V domains shown, also called mAb_017) VH: EVQLLESGGDLVQPGGSLRLSCAASGFTFSSYAMNWVRQAPGKGLEWVSAISGSGVFTYYADSVKGRFTISRDNSENTLYLQMNSLRAEDTAVYYCAKEMQQLIQGDLFDIWGQGTMVTVSS VL: EIVLTQSPATLSLSPGERATLSCGASQSVSNNYLAWYQQKPGLAPRLLIYDASSRATGIPDRFSGSGSGTDFTLTISRLEPEDFAVYYCQQYGSSHTFGQGTKLEIK = 1.93 h
